B1: SMOC2 (parent)
chain: PALETQPQGDEEDIASRYPTLWTE

- Variants of: B1
- TEST DETAILS: protein stability index of a GFP-peptide fusion (GPS, HEK-293T) (PSI 1-6); higher = more stable;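 note: lentivirally expressed fusions sorted by FACS into six bins by GFP to DsRed ratio, PSI derived from sequencing read proportions per bin multiplied by bin number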
- RUN CONDITIONS: c terminus: a fixed tail appended
The following variants are shown together with reported protein stability index values.
Reply: number alone, nothing else.

Recorded protein stability index, per entry:
Given `D10R` , state its recorded protein stability index.
3.86

Consider the variant `P19M` and give its measured protein stability index.
4.32

GET /values?readout=protein stability index&item= `P1E`
4.63

For `D13I` , what is its reported protein stability index?
3.65

Request the reported protein stability index associated with `E24I`
3.97

What value of protein stability index has been reported for the following variant? `P19V`
5.11

# query: protein stability index of entry `T23A`
4.21

Reported protein stability index, variant `I14E` : ____
4.79

Now, please, on to the next variant.
So what does the record say about protein stability index for `A15D` ?
4.33
